EXPERIMENTAL SYSTEM: SH2D1B SH2 domain (Homo sapiens)
Sequence (O14796 5-101 limits assumed): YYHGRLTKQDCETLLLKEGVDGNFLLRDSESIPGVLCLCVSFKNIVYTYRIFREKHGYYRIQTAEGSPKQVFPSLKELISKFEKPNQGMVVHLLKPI
pKd: −log10 of the molar value. Residues, ends and D or L forms follow the SMILES beside them.
MEASUREMENT KIND: pKd

COMPOUND	RESULT VALUE
CSCC[C@H](NC(=O)[C@H](CC(C)C)NC(=O)[C@H](C)NC(=O)[C@H](CCCNC(=N)N)NC(=O)[C@H](Cc1ccc(OP(=O)(O)O)cc1)NC(=O)[C@H](Cc1ccccc1)NC(=O)[C@H](CC(N)=O)NC(=O)[C@H](CO)NC(=O)[C@@H](N)CC(=O)O)C(=O)N[C@@H](CC(=O)O)C(=O)N[C@@H](CCC(=O)O)C(=O)N[C@@H](CCC(=O)O)C(=O)N[C@@H](CC(=O)O)C(=O)O [ErbB1 998 13-mer] (HELM PEPTIDE1{D.S.N.F.[O=C([C@H](Cc1ccc(OP(=O)(O)O)cc1)N[*:1])[*:2]].R.A.L.M.D.E.E.D}$$$$V2.0)	5.40
